Test system: Human adenovirus type 5
methodDescription: Adenovirus virus yield (TCID50) assay in HeLa cells
Type: cell-based
setupConditions: Human mastadenovirus C, Ad5, primary screen
resultType: EC50

Could you tell me which EC50 is on file for O=C(C=Cn1cnc(-c2cc(C(F)(F)F)cc(C(F)(F)F)c2)n1)NNc1ccccn1 (stereo in doubt) [verdinexor] ?
> 180 nM

* * *

methodDescription: Cytotoxicity in BCBL-1 cells (CellTiter-Glo)
Assay type: cell-based
setupConditions: human, KSHV secondary screen
resultType: CC50 (nM)
# number only, unit nM dropped from output

Could you tell me which CC50 is on file for O=C(C=Cn1cnc(-c2cc(C(F)(F)F)cc(C(F)(F)F)c2)n1)NNc1ccccn1 (stereo in doubt) [verdinexor] ?
1400

* * *

methodDescription: Cytotoxicity in HeLa cells (MTS)
Format: cell-based
setupConditions: human, Ad5 secondary screen
resultType: CC50 at 6 d (nM)
# number only, unit nM dropped from output

Could you tell me which CC50 at 6 d is on file for O=C(C=Cn1cnc(-c2cc(C(F)(F)F)cc(C(F)(F)F)c2)n1)NNc1ccccn1 (stereo in doubt) [verdinexor] ?
100

* * *

methodDescription: Cytotoxicity in Akata cells (CellTiter-Glo), concurrent with EBV assays
Type: cell-based
setupConditions: human, EBV secondary screen
resultType: CC50 (nM)
# number only, unit nM dropped from output

Could you tell me which CC50 is on file for O=C(C=Cn1cnc(-c2cc(C(F)(F)F)cc(C(F)(F)F)c2)n1)NNc1ccccn1 (stereo in doubt) [verdinexor] ?
340

* * *

methodDescription: Cytotoxicity in GPL cells
Format: cell-based
setupConditions: primary guinea pig lung cells (GPL), Guinea pig CMV primary screen
resultType: CC50 (µM)
# number only, unit µM dropped from output

Could you tell me which CC50 is on file for O=C(C=Cn1cnc(-c2cc(C(F)(F)F)cc(C(F)(F)F)c2)n1)NNc1ccccn1 (stereo in doubt) [verdinexor] ?
2

* * *

methodDescription: Cytotoxicity in HeLa cells (MTS)
Type: cell-based
setupConditions: human, Ad5 primary screen
Method: Cytotoxicity assays: Concurrent assessment of cytotoxicity was also performed for each study in the same cell line and with the same compound exposure. For AdV cytotoxicity assay, at 6d post-infection plates were stained with tetrazolium-based MTS (CellTiter96 Reagent, Promega) and the microtiter plates were read spectrophotometrically at 490/650nm (Molecular Devices).
resultType: CC50 at 6 d (nM)
# number only, unit nM dropped from output

Could you tell me which CC50 at 6 d is on file for O=C(C=Cn1cnc(-c2cc(C(F)(F)F)cc(C(F)(F)F)c2)n1)NNc1ccccn1 (stereo in doubt) [verdinexor] ?
180

* * *

targetOrSystem: UniProt:P35367
methodDescription: Histamine H1 receptor functional activity assay, agonist
Assay type: biochemical
setupConditions: Study No. KS-1017, read-out: IC50 (50% inhibitory concentration)
pIC50: −log10 of the molar value.
resultType: pIC50

Could you tell me which pIC50 is on file for O=C(C=Cn1cnc(-c2cc(C(F)(F)F)cc(C(F)(F)F)c2)n1)NNc1ccccn1 (stereo in doubt) [verdinexor] ?
< 5.00

* * *

methodDescription: Cytotoxicity in HFF cells, concurrent with HCMV assays
Assay type: cell-based
setupConditions: human, human foreskin fibroblast cells (HFF), HCMV secondary screen
resultType: CC50 (µM)
# number only, unit µM dropped from output

Could you tell me which CC50 is on file for O=C(C=Cn1cnc(-c2cc(C(F)(F)F)cc(C(F)(F)F)c2)n1)NNc1ccccn1 (stereo in doubt) [verdinexor] ?
73.3

* * *

System: JC polyoma virus MAD-4 strain
methodDescription: microbe, parasite or virus in culture
Type: cell-based
setupConditions: Polyomavirus sp., COS-7, JCPyV, secondary screen, COS-7 cells
resultType: pEC50
Conceptually, pEC50 converts a concentration in mol/L into minus its log10.

Recorded pEC50 for O=C(C=Cn1cnc(-c2cc(C(F)(F)F)cc(C(F)(F)F)c2)n1)NNc1ccccn1 (stereo in doubt) [verdinexor] with JC polyoma virus MAD-4 strain, please?
5.50

* * *

methodDescription: Cytotoxicity in primary human keratinocytes (PHK)
Type: cell-based
setupConditions: HPV-18 secondary screen, PHKs
Description: Cytotoxicity assays: Concurrent assessment of cytotoxicity was also performed for each study in the same cell line and with the same compound exposure. […] For secondary assays, the amplification of HPV-18 DNA was determined in an organotypic squamous epithelial raft culture of PHKs. […] Inhibition was expressed as % of viral DNA copies relative to the untreated cultures.
resultType: CC50 (µM)
# number only, unit µM dropped from output

Could you tell me which CC50 is on file for O=C(C=Cn1cnc(-c2cc(C(F)(F)F)cc(C(F)(F)F)c2)n1)NNc1ccccn1 (stereo in doubt) [verdinexor] ?
8.3

* * *

targetOrSystem: histamine H1 receptor (Homo sapiens, UniProt P35367)
Sequence (P35367 whole entry, species assumed): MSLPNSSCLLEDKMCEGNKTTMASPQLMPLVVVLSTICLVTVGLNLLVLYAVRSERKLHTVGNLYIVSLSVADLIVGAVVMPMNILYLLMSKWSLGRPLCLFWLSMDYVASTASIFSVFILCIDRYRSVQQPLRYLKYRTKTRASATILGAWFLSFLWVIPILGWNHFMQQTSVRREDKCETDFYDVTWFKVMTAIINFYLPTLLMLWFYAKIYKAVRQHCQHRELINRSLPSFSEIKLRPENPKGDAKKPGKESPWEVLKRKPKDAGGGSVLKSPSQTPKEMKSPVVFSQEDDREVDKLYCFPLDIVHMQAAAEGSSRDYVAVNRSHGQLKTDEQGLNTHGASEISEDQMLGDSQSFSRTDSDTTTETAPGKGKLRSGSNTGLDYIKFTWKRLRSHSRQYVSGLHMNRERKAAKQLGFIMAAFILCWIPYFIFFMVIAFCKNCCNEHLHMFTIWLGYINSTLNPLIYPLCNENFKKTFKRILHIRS
methodDescription: Histamine H1 receptor functional activity assay, antagonist
Format: biochemical
setupConditions: Study No. KS-1017, read-out: IC50 (50% inhibitory concentration)
pIC50: −log10 of the molar value.
resultType: pIC50

Could you tell me which pIC50 is on file for O=C(C=Cn1cnc(-c2cc(C(F)(F)F)cc(C(F)(F)F)c2)n1)NNc1ccccn1 (stereo in doubt) [verdinexor] ?
< 5.00
